Conditions: in methyl acetate, 303.15 K
Observation type: solubility (mole fraction)
Enter a number only.

So, `c1ccc(-n2c3ccccc3c3ccccc32)cc1` ? Its solubility (mole fraction) was 0.161

* * *

Details: in n-butyl acetate, 293.15 K
Observation type: solubility (mole fraction)

So, `c1ccc(-n2c3ccccc3c3ccccc32)cc1` ? Its solubility (mole fraction) was 0.146

* * *

Details: in n-propyl acetate, 323.15 K
Observation type: solubility (mole fraction)
Enter a number only.

So, `c1ccc(-n2c3ccccc3c3ccccc32)cc1` ? Its solubility (mole fraction) was 0.278

* * *

Conditions: in n-propyl acetate, 298.15 K
Observation type: solubility (mole fraction)
Enter a number only.

So, `c1ccc(-n2c3ccccc3c3ccccc32)cc1` ? Its solubility (mole fraction) was 0.119

Value source: BigSolDB 2.1
